Tested on: A549
Assay: Antiproliferative activity against human A549 cells after 120 hrs by WST-8 assay
Type: functional, cell-based
Details: A549, 120 h
assay_endpoint: IC50 (nM)

Challenge: Identify measured IC50 corresponding to "CCC[C@H]1C[C@@H](OC)C/C(C)=C\[C@@H]2C[C@@H](OC(=O)/C=C\CCc3coc(CCCNC(=O)OC)n3)C[C@H](CC(=O)O1)O2"
Response given: 400

P = CCC[C@H]1C[C@@H](OC)C/C(C)=C\[C@@H]2C[C@@H](OC(=O)c3ccccc3CCc3coc(/C=C\CNC(=O)OC)n3)C[C@H](CC(=O)O1)O2
Q = CCC[C@H]1C[C@@H](OC)C/C(C)=C\[C@@H]2C[C@@H](OC(=O)/C=C\CCc3coc(/C=C\CNC(=O)OC)n3)C[C@H](CC(=O)O1)O2
Challenge: Between the entries labeled P and Q , whose measured IC50 is lower? Mark your answer with the label of the selected entry.
Response given: Q

Cited source: ChEMBL document CHEMBL3259583
